MEASUREMENT_NOTES: chemical genetic growth profiling, strain panel (AID 1159580);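 also: tested at 20 µM; growth read once vehicle control cultures reached saturation at 30 °C; 1 = growth at the plate median or of vehicle wells; lower values mean less growth of the strain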
TEST_CONTEXT: S. cerevisiae deletion strains, growth OD, locus YOR080W, strain dia2, active compounds read low
The campaign covered roughly 5,500 compounds. About 2,000 (36%) were called active. About 18% were inconclusive and are not listed. Some of the results follow.

- MOLECULE: "Oc1cccc(O)c1"
  normalized growth: 0.987
- MOLECULE: "C[n+]1ccccc1/C=N/O"
  normalized growth: 1
- MOLECULE: "Oc1c(Cl)cc(Cl)cc1Sc1cc(Cl)cc(Cl)c1O"
  normalized growth: 0.0627
- MOLECULE: "Cc1cc(=O)oc2cc(O)cc(O)c12"
  normalized growth: 0.965
- MOLECULE: "Cc1cc(=O)oc2cc(O)c(O)cc12"
  normalized growth: 0.975
- MOLECULE: "CN(C)CCCN1c2ccccc2Sc2ccc(Cl)cc21"
  normalized growth: 0.18
- MOLECULE: "CN(C)CCCN1c2ccccc2Sc2ccccc21"
  normalized growth: 1.01
- MOLECULE: "CN(C)CCCN1c2ccccc2CCc2ccccc21"
  normalized growth: 0.995
- MOLECULE: "CC(=O)Oc1ccc(O)cc1"
  normalized growth: 0.998
- MOLECULE: "OC[C@H]1O[C@@H](O[C@H]2[C@H](O)[C@@H](O)[C@@H](O)O[C@@H]2CO)[C@H](O)[C@@H](O)[C@@H]1O"
  normalized growth: 0.988
- MOLECULE: "CC(C)NCC(O)COc1ccc(COCCOC(C)C)cc1 (centres undefined)"
  normalized growth: 0.997
- MOLECULE: "CS(=O)(=O)Nc1ccc([N+](=O)[O-])cc1Oc1ccccc1"
  normalized growth: 0.991
- MOLECULE: "NS(=O)(=O)c1cc2c(cc1Cl)NC(CSCc1ccccc1)=NS2(=O)=O"
  normalized growth: 1.03
- MOLECULE: "CC(=O)Oc1ccc(/C=C/c2cc(OC(C)=O)cc(OC(C)=O)c2)cc1"
  normalized growth: 1.01
- MOLECULE: "CC(C)CCCC(C)[C@H]1CCC2C3C(=O)C=C4C[C@@H](O)CC[C@]4(C)C3CC[C@@]21C (some centres undefined)"
  normalized growth: 1.04
- MOLECULE: "CN(C)CCCN1c2ccccc2CCc2ccc(Cl)cc21"
  normalized growth: 1
- MOLECULE: "CC(=O)O[C@H]1CC[C@@]2(C)C(=CC(=O)C3C4CCC(C(C)CCCC(C)C)[C@@]4(C)CCC32)C1 (some centres undefined)"
  normalized growth: 0.996
- MOLECULE: "COc1ccc(C2Sc3ccccc3N(CCN(C)C)C(=O)C2OC(C)=O)cc1 (centres undefined)"
  normalized growth: 0.973
- MOLECULE: "CC1=CC(=O)c2ccccc2C1=O"
  normalized growth: 1.03

* * *

MEASUREMENT_NOTES: chemical genetic growth profiling, strain panel (AID 1159580);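 also: tested at 20 µM; growth read once vehicle control cultures reached saturation at 30 °C; 1 = growth at the plate median or of vehicle wells; lower values mean less growth of the strain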
TEST_CONTEXT: S. cerevisiae deletion strains, growth OD, locus YAL026C, strain drs2
The campaign covered roughly 5,500 compounds. About 2,000 (36%) were called active. Roughly 18% stayed inconclusive and do not appear here. Cut-off read from the data, not from the text of the source: active = normalized growth mostly below about 0.91 (no sharp cut-off); inconclusive = no clear call, values can overlap the other calls; inactive = mostly above about 0.92. The list shows a part of the results.
Classes used: T (active), F (inactive)

- COMPOUND: "C=C1C[C@]23C[C@@]1(O)CC[C@H]2[C@@]12C=C[C@H](O)[C@@](C)(C(=O)O1)[C@H]2[C@@H]3C(=O)O"
  DISCRETE_LABEL: "F"
- COMPOUND: "CCN(CC)CCOCCOC(=O)C1(c2ccccc2)CCCC1"
  DISCRETE_LABEL: "F"
- COMPOUND: "CC(=O)O[C@@H]1C=C[C@@]2(C)C(C[C@@H](OC(C)=O)[C@@]3(C)C4=CC(=O)O[C@@H](c5ccoc5)[C@]4(C)CCC23)C1(C)C (some centres not stated)"
  DISCRETE_LABEL: "F"
- COMPOUND: "CC(=O)O[C@H]1CCC2(C)C3=C(CCC2C1(C)C)[C@]1(C)CCC(C(C)CCC=C(C)C)[C@@]1(C)CC3 (some centres not stated)"
  DISCRETE_LABEL: "F"
- COMPOUND: "CC(=O)OCC(=O)[C@@]1(O)[C@H](C)CC2C3CCC4=CC(=O)C=C[C@]4(C)[C@@]3(F)[C@@H](O)C[C@@]21C (some centres not stated)"
  DISCRETE_LABEL: "F"
- COMPOUND: "CCCc1cc(=O)[nH]c(=S)[nH]1"
  DISCRETE_LABEL: "F"
- COMPOUND: "COc1cc(C/C=C/c2ccccc2)c(OC)cc1O"
  DISCRETE_LABEL: "F"
- COMPOUND: "CC(C)=CCCC(C)[C@@H]1CC[C@]2(C)C3=C(CC[C@@]12C)C1(C)CC[C@H](O)C(C)(C)C1CC3 (some centres not stated)"
  DISCRETE_LABEL: "F"
- COMPOUND: "CC(=O)O[C@H]1CC[C@@]2(C)C(C[C@@H](OC(C)=O)[C@@]3(C)C4=CC(=O)O[C@@H](c5ccoc5)[C@]4(C)CCC23)C1(C)C (some centres not stated)"
  DISCRETE_LABEL: "F"
- COMPOUND: "CC(C)c1ccc2c(c1)CCC1[C@](C)(CN)CCC[C@]21C (some centres not stated)"
  DISCRETE_LABEL: "T"
- COMPOUND: "CC(=O)O[C@@H]1CC2C(C)(C)[C@H](O)C=C[C@]2(C)C2CC[C@]3(C)C(=CC(=O)O[C@H]3c3ccoc3)[C@@]21C (some centres not stated)"
  DISCRETE_LABEL: "F"
- COMPOUND: "C=C1c2c(Cl)ccc(O)c2C(O)=C2C(=O)[C@]3(O)C(O)=C(C(N)=O)C(=O)[C@@H](N(C)C)[C@@H]3[C@@H](O)[C@H]12"
  DISCRETE_LABEL: "F"
- COMPOUND: "CC(C)c1ccc2c(c1)CCC1C(C)(C(N)=O)CCCC21C (configuration not stated)"
  DISCRETE_LABEL: "F"
- COMPOUND: "CC(N=C(NC#N)Nc1ccncc1)C(C)(C)C (configuration not stated)"
  DISCRETE_LABEL: "F"
- COMPOUND: "COC(=O)c1c(OC)cc2c(c1C)Oc1c(Cl)c(O)c(Cl)c(C)c1C(=O)O2"
  DISCRETE_LABEL: "F"
- COMPOUND: "COC(=O)c1c(OC)cc2c(c1C)Oc1c(Cl)c(OC(C)=O)c(Cl)c(C)c1C(=O)O2"
  DISCRETE_LABEL: "F"
- COMPOUND: "CC(=O)O[C@H]1CCC2(C)C3=C(CCC2C1(C)C)[C@@]1(C)CC[C@@H](C(C)CCC=C(C)C)[C@]1(C)CC3 (some centres not stated)"
  DISCRETE_LABEL: "F"

* * *

MEASUREMENT_NOTES: chemical genetic growth profiling, strain panel (AID 1159580);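 also: tested at 20 µM; growth read once vehicle control cultures reached saturation at 30 °C; 1 = growth at the plate median or of vehicle wells; lower values mean less growth of the strain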
TEST_CONTEXT: S. cerevisiae deletion strains, growth OD, locus YHR129C, strain ARP1
Among all 5,500 compounds or so, about 2,000 (36%) were called active. Another 18% or so got no clear call; they are omitted. Rule as the data show it: active = normalized growth mostly below about 0.91 (no sharp cut-off); inconclusive = no clear call, values can overlap the other calls; inactive = mostly above about 0.92. The list shows a part of the results.
Classes used: active, inactive

- COMPOUND: "CCCN(CCC)S(=O)(=O)c1ccc(C(=O)O)cc1"
  DISCRETE_LABEL: "inactive"
- COMPOUND: "CN(C)[C@@H]1C(=O)C(C(N)=O)=C(O)[C@@]2(O)C(=O)C3=C(O)c4c(O)ccc(Cl)c4[C@@](C)(O)[C@H]3C[C@@H]12"
  DISCRETE_LABEL: "inactive"
- COMPOUND: "C[n+]1ccccc1/C=N/O"
  DISCRETE_LABEL: "inactive"
- COMPOUND: "CC(C)CCCC(C)[C@H]1CCC2C3CC=C4CC(=O)CC[C@]4(C)C3CC[C@@]21C (stereo not given in full)"
  DISCRETE_LABEL: "inactive"
- COMPOUND: "CC(C)CCCC(C)C1CCC2C3=CC[C@H]4C[C@@H](O)CC[C@]4(C)C3CC[C@@]21C (stereo not given in full)"
  DISCRETE_LABEL: "inactive"
- COMPOUND: "COC(=O)c1c(C)c2c(c(C)c1OC)OC(=O)c1c(C)c(Cl)c(OC)c(Cl)c1O2"
  DISCRETE_LABEL: "inactive"
- COMPOUND: "COc1c(C)c2c(c(C)c1Cl)Oc1c(Cl)c(OC)c(Cl)c(C)c1C(=O)O2"
  DISCRETE_LABEL: "inactive"
- COMPOUND: "CC(=O)O[C@H]1CC[C@@]2(C)C(C[C@@H](OC(C)=O)[C@@]3(C)C4=CC(=O)O[C@@H](c5ccoc5)[C@]4(C)CCC23)C1(C)C (stereo not given in full)"
  DISCRETE_LABEL: "inactive"
- COMPOUND: "CC(=O)O[C@@H]1CC[C@@]2(C)C(C[C@@H](OC(C)=O)[C@@]3(C)C4=CC(=O)O[C@@H](c5ccoc5)[C@]4(C)CCC23)C1(C)C (stereo not given in full)"
  DISCRETE_LABEL: "inactive"
- COMPOUND: "CC(=O)O[C@@H]1CC2C(C)(C)[C@H](O)C=C[C@]2(C)C2CC[C@]3(C)C(=CC(=O)O[C@H]3c3ccoc3)[C@@]21C (stereo not given in full)"
  DISCRETE_LABEL: "inactive"
- COMPOUND: "CC(C)CCCC(C)C1CCC2C3CC[C@H]4C[C@@H](O)CC[C@]4(C)C3CC[C@]12C (stereo not given in full)"
  DISCRETE_LABEL: "inactive"
- COMPOUND: "N[C@@H](CCC(=O)N[C@@H](CS)C(=O)NCC(=O)O)C(=O)O"
  DISCRETE_LABEL: "inactive"
- COMPOUND: "Cc1c(C)c2c(c(C)c1O)CCC(C)(CCCC(C)CCCC(C)CCCC(C)C)O2 (stereo not given)"
  DISCRETE_LABEL: "inactive"
- COMPOUND: "COc1ccc2cc(CCC(C)=O)ccc2c1"
  DISCRETE_LABEL: "inactive"
- COMPOUND: "NCCCCCCNS(=O)(=O)c1cccc2c(Cl)cccc12"
  DISCRETE_LABEL: "inactive"
- COMPOUND: "CCC(C)C(=O)OC1[C@@H]2CC3=C4CC(=O)O[C@@H](c5ccoc5)[C@]4(C)CCC3[C@@](C)(C2=O)[C@@H](CC(=O)OC)C1(C)C (stereo not given in full)"
  DISCRETE_LABEL: "inactive"
- COMPOUND: "CC(C)CCCC(C)[C@H]1CCC2C3CC=C4C[C@@H](O)CC[C@]4(C)C3CC[C@@]21C (stereo not given in full)"
  DISCRETE_LABEL: "inactive"
- COMPOUND: "CC(=O)Oc1c(Cl)c(C)c2c(c1Cl)OC(=O)c1c(C)c(Cl)c(OC(C)=O)c(Cl)c1O2"
  DISCRETE_LABEL: "inactive"
- COMPOUND: "CC(=O)Oc1cccc(O)c1"
  DISCRETE_LABEL: "inactive"
- COMPOUND: "O=C1NC(O)=NC1(c1ccccc1)c1ccccc1"
  DISCRETE_LABEL: "inactive"
- COMPOUND: "N=C(N)N"
  DISCRETE_LABEL: "inactive"
- COMPOUND: "CC(=O)O[C@@H]1C=C[C@@]2(C)C(C[C@@H](OC(C)=O)[C@@]3(C)C4=CC(=O)O[C@@H](c5ccoc5)[C@]4(C)CCC23)C1(C)C (stereo not given in full)"
  DISCRETE_LABEL: "inactive"
- COMPOUND: "COC(=O)c1c(OC)cc2c(c1C)Oc1c(Cl)c(OC(C)=O)c(Cl)c(C)c1C(=O)O2"
  DISCRETE_LABEL: "inactive"
- COMPOUND: "CC(C)CCCC(C)C1CCC2C3CC(=O)[C@H]4C[C@@H](O)CC[C@]4(C)C3CC[C@]12C (stereo not given in full)"
  DISCRETE_LABEL: "inactive"
- COMPOUND: "CC(C)=CCCC(C)C1CC[C@@]2(C)C3=C(CC[C@]12C)C1(C)CC[C@H](O)C(C)(C)C1CC3 (stereo not given in full)"
  DISCRETE_LABEL: "inactive"
- COMPOUND: "Nc1ccc(S(=O)(=O)NC(=O)c2ccccc2)cc1"
  DISCRETE_LABEL: "inactive"
- COMPOUND: "CN(C)C1C(=O)C(C(N)=O)=C(O)C2(O)C(=O)C3=C(O)c4c(O)ccc(Cl)c4C(C)(O)C3CC12 (stereo not given)"
  DISCRETE_LABEL: "inactive"
- COMPOUND: "CN[C@@H]1[C@H](O)[C@H](NC)[C@H]2O[C@@]3(O)C(=O)C[C@@H](C)O[C@H]3O[C@@H]2[C@H]1O"
  DISCRETE_LABEL: "inactive"
- COMPOUND: "CC1=CC(=O)c2ccccc2C1=O"
  DISCRETE_LABEL: "active"
- COMPOUND: "CCCSc1ccc2nc(NC(=O)OC)[nH]c2c1"
  DISCRETE_LABEL: "inactive"
- COMPOUND: "C=C(C)C1CCC(C)(O)C2CC3OC3(C)C2C1 (stereo not given)"
  DISCRETE_LABEL: "inactive"
- COMPOUND: "CC(=O)Oc1ccc(O)cc1"
  DISCRETE_LABEL: "inactive"
- COMPOUND: "CC(=O)O[C@H]1CCC2(C)C3=C(CCC2C1(C)C)[C@@]1(C)CC[C@@H](C(C)CCC=C(C)C)[C@]1(C)CC3 (stereo not given in full)"
  DISCRETE_LABEL: "inactive"
- COMPOUND: "CC(=O)OC1CCC2(C)C(CC(OC(C)=O)C3(C)C4=CC(=O)OC(c5ccoc5)C4(C)CCC23)C1(C)C (stereo not given)"
  DISCRETE_LABEL: "inactive"
- COMPOUND: "O=C(O)c1ccc(S(=O)(=O)N(Cl)Cl)cc1"
  DISCRETE_LABEL: "inactive"
- COMPOUND: "CC(=O)Oc1ccc(/C=C/c2cc(OC(C)=O)cc(OC(C)=O)c2)cc1"
  DISCRETE_LABEL: "inactive"
- COMPOUND: "O=C(O)C1=CCCNC1"
  DISCRETE_LABEL: "inactive"
- COMPOUND: "CCOC(=O)[C@H](CCc1ccccc1)N[C@@H](C)C(=O)N1CCC[C@H]1C(=O)O"
  DISCRETE_LABEL: "inactive"
- COMPOUND: "CCCOc1ccc2nc(NC(=O)OC)[nH]c2c1"
  DISCRETE_LABEL: "inactive"
- COMPOUND: "COc1cc(C/C=C/c2ccccc2)c(OC)cc1O"
  DISCRETE_LABEL: "inactive"

Values compiled from PubChem BioAssay AID1159580.
